Source: patent US20230331718A1

# Tested on: SMN2 Splicing D7 (SMN Δ7 transcript)
# method.summary: SMN Quantitative Splicing Assay (qPCR)
# Type: cell-based, human
# conditions: Homo sapiens, Fibroblast, 24 h, SMA patient fibroblasts (GM03813), 2.5 µM to 0.6 nM
# Method: Spinal muscular atrophy (SMA) patient fibroblasts (GM03813, Coriell) were plated in 96-well plates at 50,000 cells/well. […] Treated cells were lysed and cDNA synthesized using the Fast Advanced Cells-to-Ct kit (Thermofisher A35378) according to the manufacturer’s instructions. 2 µL of each cDNA were used in qPCR reactions. […] Reactions were run in a Quant Studio 6 qPCR instrument with default settings.
Quick list: IC50 per entry.

// assay SMN2 Splicing D7 (SMN Δ7 transcript), entry CN(c1cnc(-c2cc3occc(=O)c3cc2O)nn1)[C@H]1C[C@@H]2CCC(N2)[C@H]1F , IC50 value = 0.01 to 15 nM

CCn1ccc2cc(O)c(-c3ncc(N(C)[C@@H]4C[C@H]5CCC(N5)[C@@H]4F)nn3)cc2c1=O on SMN2 Splicing D7 (SMN Δ7 transcript) gives IC50 = 101 to 500 nM

Log: SMN2 Splicing D7 (SMN Δ7 transcript), molecule CN(c1cnc(-c2cc3c(=O)n(C)ccc3cc2O)nn1)[C@H]1CC2CC[C@@H](N2)[C@H]1F , IC50 = 0.01 to 15 nM

Record CN(c1cnc(-c2cc3ncn(C)c(=O)c3cc2O)nn1)[C@H]1CC2CCC(N2)[C@H]1F (single isomer, unassigned) / SMN2 Splicing D7 (SMN Δ7 transcript), IC50 recorded as 0.01 to 15 nM

Result for Cc1cc2cc(-c3ncc(N(C)[C@H]4CC5CCC(N5)[C@H]4F)nn3)c(O)cc2cn1 (stereo partly shown) , tested on SMN2 Splicing D7 (SMN Δ7 transcript), IC50: 0.01 to 15 nM

The molecule CN(c1cnc(-c2cc3c(=O)ccoc3cc2O)nn1)[C@@H]1CC2CC[C@H](N2)[C@@H]1F , when measured on SMN2 Splicing D7 (SMN Δ7 transcript), yielded IC50 of 101 to 500 nM

I looked up CN(c1cnc(-c2cc3nccnc3cc2O)nn1)C1CC2CCC(N2)C1F (stereo not shown) and its IC50 for SMN2 Splicing D7 (SMN Δ7 transcript) was 16 to 50 nM

###

As shown below, each of these compounds has a reported IC50 value.
# Tested on: SMN2 Splicing D7 (SMN Δ7 transcript)
# method.summary: SMN Quantitative Splicing Assay (qPCR)
# Type: cell-based, human
# conditions: Homo sapiens, Fibroblast, 24 h, SMA patient fibroblasts (GM03813), 2.5 µM to 0.6 nM
# Method: Spinal muscular atrophy (SMA) patient fibroblasts (GM03813, Coriell) were plated in 96-well plates at 50,000 cells/well. […] Treated cells were lysed and cDNA synthesized using the Fast Advanced Cells-to-Ct kit (Thermofisher A35378) according to the manufacturer’s instructions. 2 µL of each cDNA were used in qPCR reactions. […] Reactions were run in a Quant Studio 6 qPCR instrument with default settings.

Observe how each entry below is paired with its result.
>  <compound>
CCn1ncc2cc(-c3ncc(N(C)[C@H]4C[C@@H]5CCC(N5)[C@H]4F)nn3)c(O)cc2c1=O

>  <reported.result>
0.01 to 15 nM

$$$$
>  <compound>
CN(c1cnc(-c2cc3c(=O)ccoc3cc2O)nn1)[C@H]1CC2CCCC(N2)[C@H]1F (stereo partly shown)

>  <reported.result>
51 to 100 nM

$$$$

// CN(c1cnc(-c2cc3ccn(C)c(=O)c3cc2O)nn1)[C@H]1C[C@]2(C)CCC(N2)[C@H]1F : IC50 value = 16 to 50 nM

Per the record, CN(c1cnc(-c2cc3ccn(C(F)F)c(=O)c3cc2O)nn1)[C@@H]1CC2CCC(N2)[C@@H]1F (stereo partly shown) has IC50 of 16 to 50 nM

Noted for CN(c1cnc(-c2cc3c(F)cn(C)c(=O)c3cc2O)nn1)[C@@H]1CC2CC(F)(F)C(C1)N2 (stereo partly shown) : its IC50 reads 51 to 100 nM

Form: compound = CN(c1cnc(-c2cc3occc(=O)c3cc2O)nn1)C1CC2CCC(N2)C1F (stereo not shown) ; IC50 = 16 to 50 nM

IC50 in this record for [2H]C([2H])([2H])N(c1cnc(-c2cc3c(F)cn(C([2H])([2H])[2H])c(=O)c3cc2O)nn1)[C@H]1C[C@@H]2CC[C@@H](N2)[C@H]1C : 0.01 to 15 nM

###

# Test system: SMN2 Splicing D7 (SMN Δ7 transcript)
# method.summary: SMN Quantitative Splicing Assay (qPCR)
# Format: cell-based, human
# conditions: Homo sapiens, Fibroblast, 24 h, SMA patient fibroblasts (GM03813), 2.5 µM to 0.6 nM
pIC50: −log10 of the molar value.
parameter: pIC50

Recorded pIC50, per entry:
>  <molecule>
CCn1c(C)nc2cc(-c3ncc(N(C)[C@H]4CC5CC(F)(F)C(C4)N5)nn3)c(O)cc2c1=O (stereo partly shown) [Compound 215]

>  <pIC50>
7.30 to 7.80

$$$$
>  <molecule>
Cc1coc2cc(-c3ncc(N(C)[C@H]4CC5CCCC(N5)[C@H]4F)nn3)c(O)cc2c1=O (stereo partly shown) [Compound 102]

>  <pIC50>
7.82 to 11.00

$$$$
>  <molecule>
Cc1nc2cc(O)c(-c3ncc(N(C)[C@@H]4C[C@H]5CCC(N5)[C@@H]4F)nn3)cc2nc1C [Compound 86]

>  <pIC50>
7.00 to 7.29

$$$$
>  <molecule>
[2H]C([2H])([2H])N(c1cnc(-c2cc3c(F)cn(CC)c(=O)c3cc2O)nn1)[C@@H]1C[C@H]2CC[C@H](N2)[C@@H]1F [Compound 202]

>  <pIC50>
7.00 to 7.29

$$$$
>  <molecule>
CN(c1cnc(-c2cc3ccncc3cc2O)nn1)C1CC2CCC(N2)[C@H]1F (stereo partly shown) [Compound 22]

>  <pIC50>
7.30 to 7.80

$$$$

The value of pIC50 recorded for Cc1cnc2cc(O)c(-c3ncc(N(C)[C@@H]4CC5CCC(N5)[C@@H]4F)nn3)cc2n1 (stereo partly shown) [Compound 51] when tested on SMN2 Splicing D7 (SMN Δ7 transcript) reads 7.00 to 7.29

Simply: [2H]C([2H])([2H])N(c1cnc(-c2cc3c(F)cn(C([2H])([2H])[2H])c(=O)c3cc2O)nn1)[C@@H]1C[C@H]2CC[C@H](N2)[C@@H]1F [Compound 194] , SMN2 Splicing D7 (SMN Δ7 transcript), pIC50 = 7.82 to 11.00

###

# Test system: SMN2 Splicing D7 (SMN Δ7 transcript)
# method.summary: SMN Quantitative Splicing Assay (qPCR)
# Format: cell-based, human
# conditions: Homo sapiens, Fibroblast, 24 h, SMA patient fibroblasts (GM03813), 2.5 µM to 0.6 nM
Parameter: IC50. Scope: all listed entries.

>  <structure.as.smiles>
Cc1cnc2cc(-c3ncc(N(C)[C@@H]4CC5CC[C@H](N5)[C@@H]4F)nn3)c(O)cc2n1

>  <system>
SMN2 Splicing D7 (SMN Δ7 transcript)

>  <IC50>
51 to 100 nM

$$$$
>  <structure.as.smiles>
Cc1cc2cc(O)c(-c3ncc(N(C)[C@@H]4CC5CCC[C@H](N5)[C@@H]4F)nn3)cc2cn1

>  <system>
SMN2 Splicing D7 (SMN Δ7 transcript)

>  <IC50>
16 to 50 nM

$$$$

What the record says about CCc1coc2cc(-c3ncc(N(C)[C@@H]4C[C@H]5CC[C@H](N5)[C@@H]4F)nn3)c(O)cc2c1=O : IC50 is 16 to 50 nM

###

# Tested on: SMN2 Splicing D7 (SMN Δ7 transcript)
# method.summary: SMN Quantitative Splicing Assay (qPCR)
# Type: cell-based, human
# conditions: Homo sapiens, Fibroblast, 24 h, SMA patient fibroblasts (GM03813), 2.5 µM to 0.6 nM
In this section, each of the compounds is paired with its reported IC50.

Before answering, review these 6 worked examples.
>  <compound>
CN(c1cnc(-c2cc3ncn(C)c(=O)c3cc2O)nn1)C1CC2CC[C@@](C)(N2)[C@H]1F (stereo partly shown)

>  <system>
SMN2 Splicing D7 (SMN Δ7 transcript)

>  <reported.result>
0.01 to 15 nM

$$$$
>  <compound>
CN(c1cnc(-c2cc3c(=O)n(C)cnc3cc2O)nn1)C1CC2CCC(N2)[C@@H]1F (stereo partly shown)

>  <system>
SMN2 Splicing D7 (SMN Δ7 transcript)

>  <reported.result>
101 to 500 nM

$$$$
>  <compound>
CN(c1cnc(-c2cc3ccn(C)c(=O)c3cc2O)nn1)[C@@H]1C[C@H]2CCC(N2)[C@@H]1F

>  <system>
SMN2 Splicing D7 (SMN Δ7 transcript)

>  <reported.result>
16 to 50 nM

$$$$
>  <compound>
[2H]C([2H])([2H])C([2H])([2H])n1cc(F)c2cc(-c3ncc(N(C)[C@H]4CC5CCC(N5)[C@H]4F)nn3)c(O)cc2c1=O (stereo partly shown)

>  <system>
SMN2 Splicing D7 (SMN Δ7 transcript)

>  <reported.result>
0.01 to 15 nM

$$$$
>  <compound>
CN(c1cnc(-c2cc3ccn(C)c(=O)c3cc2O)nn1)[C@H]1C[C@@H]2CC[C@@](C)(N2)[C@H]1F

>  <system>
SMN2 Splicing D7 (SMN Δ7 transcript)

>  <reported.result>
0.01 to 15 nM

$$$$
>  <compound>
CN(c1cnc(-c2cc3oc(C(F)(F)F)cc(=O)c3cc2O)nn1)[C@@H]1CC2CCCC(N2)[C@@H]1F (stereo partly shown)

>  <system>
SMN2 Splicing D7 (SMN Δ7 transcript)

>  <reported.result>
51 to 100 nM

$$$$

Memo: Cc1c(F)c2cc(-c3ncc(N(C)[C@H]4C[C@@H]5CC[C@@H](N5)[C@H]4F)nn3)c(O)cc2c(=O)n1C , reported IC50: 0.01 to 15 nM
